Reference for the values: patent US20040072206A1

- Target Entity: B. subtilis RNAP (Bacillus subtilis, UniProt P37870+P37871)
- Construct: endogenous in cells; host or cells: Bacillus subtilis strain PL37 (built from strain 168)
- Sequence (P37871 whole entry): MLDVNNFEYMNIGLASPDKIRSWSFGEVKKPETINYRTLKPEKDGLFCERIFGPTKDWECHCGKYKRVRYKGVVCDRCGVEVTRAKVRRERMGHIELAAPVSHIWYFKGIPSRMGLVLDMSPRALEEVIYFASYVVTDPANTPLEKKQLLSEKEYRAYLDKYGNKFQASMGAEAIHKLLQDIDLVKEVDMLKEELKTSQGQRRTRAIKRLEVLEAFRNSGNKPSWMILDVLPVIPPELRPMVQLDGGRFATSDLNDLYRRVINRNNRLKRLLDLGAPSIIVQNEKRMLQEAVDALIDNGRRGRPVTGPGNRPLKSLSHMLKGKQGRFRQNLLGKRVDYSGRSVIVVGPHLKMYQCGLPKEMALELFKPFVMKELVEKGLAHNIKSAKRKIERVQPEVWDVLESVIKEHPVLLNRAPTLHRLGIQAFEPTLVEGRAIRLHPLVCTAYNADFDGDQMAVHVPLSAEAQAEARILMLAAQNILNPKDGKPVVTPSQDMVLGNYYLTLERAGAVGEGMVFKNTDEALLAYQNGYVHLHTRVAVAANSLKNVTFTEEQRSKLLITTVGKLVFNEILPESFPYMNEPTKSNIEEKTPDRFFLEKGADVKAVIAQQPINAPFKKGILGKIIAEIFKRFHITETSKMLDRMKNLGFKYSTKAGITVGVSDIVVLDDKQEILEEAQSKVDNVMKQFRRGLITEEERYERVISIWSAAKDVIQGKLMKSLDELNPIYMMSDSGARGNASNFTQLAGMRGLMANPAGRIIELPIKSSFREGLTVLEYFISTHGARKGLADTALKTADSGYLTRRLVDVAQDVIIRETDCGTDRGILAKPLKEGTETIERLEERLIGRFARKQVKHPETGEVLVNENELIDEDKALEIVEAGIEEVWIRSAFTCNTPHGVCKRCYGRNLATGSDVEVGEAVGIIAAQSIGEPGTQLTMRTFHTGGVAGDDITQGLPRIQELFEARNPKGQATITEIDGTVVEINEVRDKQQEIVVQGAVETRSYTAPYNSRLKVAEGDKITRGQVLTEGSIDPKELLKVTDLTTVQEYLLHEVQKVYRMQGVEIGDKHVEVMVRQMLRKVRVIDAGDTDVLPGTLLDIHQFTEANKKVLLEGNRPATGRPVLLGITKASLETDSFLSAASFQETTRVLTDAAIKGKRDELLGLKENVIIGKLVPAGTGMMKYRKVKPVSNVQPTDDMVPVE
- Sequence (P20429 whole entry, further chain): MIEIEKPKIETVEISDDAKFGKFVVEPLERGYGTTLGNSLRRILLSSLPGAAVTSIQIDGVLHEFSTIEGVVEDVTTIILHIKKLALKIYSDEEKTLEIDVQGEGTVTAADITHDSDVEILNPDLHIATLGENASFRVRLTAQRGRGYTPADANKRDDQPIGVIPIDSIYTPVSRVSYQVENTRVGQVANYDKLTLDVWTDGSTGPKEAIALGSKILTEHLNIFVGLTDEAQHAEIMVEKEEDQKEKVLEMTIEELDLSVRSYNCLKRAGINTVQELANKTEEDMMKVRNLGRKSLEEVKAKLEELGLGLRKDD
- Sequence (O35011 whole entry, further chain): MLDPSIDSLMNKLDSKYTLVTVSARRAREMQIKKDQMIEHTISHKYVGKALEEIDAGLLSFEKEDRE
- Sequence (P37870 whole entry): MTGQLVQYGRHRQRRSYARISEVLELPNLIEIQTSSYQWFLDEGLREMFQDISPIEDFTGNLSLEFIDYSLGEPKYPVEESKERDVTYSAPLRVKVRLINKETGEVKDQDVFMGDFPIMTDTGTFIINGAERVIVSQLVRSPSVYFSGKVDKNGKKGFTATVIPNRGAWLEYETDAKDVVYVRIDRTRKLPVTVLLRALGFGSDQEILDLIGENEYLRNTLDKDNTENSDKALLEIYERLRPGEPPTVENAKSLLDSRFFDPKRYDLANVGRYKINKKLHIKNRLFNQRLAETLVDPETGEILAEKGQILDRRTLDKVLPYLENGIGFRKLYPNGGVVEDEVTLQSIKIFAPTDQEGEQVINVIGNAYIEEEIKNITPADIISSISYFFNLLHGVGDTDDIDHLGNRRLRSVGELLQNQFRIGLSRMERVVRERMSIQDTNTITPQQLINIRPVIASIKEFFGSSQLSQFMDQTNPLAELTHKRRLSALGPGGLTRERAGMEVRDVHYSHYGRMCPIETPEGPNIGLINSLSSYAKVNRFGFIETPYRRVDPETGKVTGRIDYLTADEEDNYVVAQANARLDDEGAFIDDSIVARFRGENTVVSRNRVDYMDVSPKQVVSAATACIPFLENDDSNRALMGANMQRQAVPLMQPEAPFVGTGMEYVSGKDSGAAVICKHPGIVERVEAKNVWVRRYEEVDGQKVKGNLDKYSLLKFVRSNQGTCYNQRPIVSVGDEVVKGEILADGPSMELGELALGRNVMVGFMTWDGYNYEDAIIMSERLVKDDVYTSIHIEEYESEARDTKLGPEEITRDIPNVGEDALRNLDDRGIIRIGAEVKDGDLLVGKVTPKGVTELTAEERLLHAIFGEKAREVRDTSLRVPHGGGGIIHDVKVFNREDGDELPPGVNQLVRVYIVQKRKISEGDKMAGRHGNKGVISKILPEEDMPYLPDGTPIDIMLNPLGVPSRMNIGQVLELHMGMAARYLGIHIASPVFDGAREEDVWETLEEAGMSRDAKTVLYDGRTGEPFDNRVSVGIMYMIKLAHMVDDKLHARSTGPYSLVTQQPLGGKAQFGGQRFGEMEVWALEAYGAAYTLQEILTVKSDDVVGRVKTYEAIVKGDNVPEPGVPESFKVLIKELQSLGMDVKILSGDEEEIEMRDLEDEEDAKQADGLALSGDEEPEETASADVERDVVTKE
- Method Description: Dual reporter assay in strain PL37: test reporter Pxyl-lacZ and ratio of control to test reporter (RES:MUG)
- Assay type: cell-based
- Run Conditions: strain PL37; Dilution Number 4; DMSO control […]
Positions of bridges follow the written chain, without caps; N, C: chain ends. Non-standard residues stand in square brackets, D forms with d. Residues, ends and D or L forms follow the SMILES beside them. *: point of attachment. Ileψ(thiazoline)Cys = CC[C@H](C)[C@H](N)C1=N[C@H](C(=O)*)CS1; dOrn = NCCC[C@@H](N)C(=O)O
Rule: measured Ratio of the control reporter (RES): test reporter (MUG) below 1 gets TRUE; anything equal to or greater than 1 gets FALSE.

Does CC[C@@]1([C@@H]2O[C@@H]([C@H]3O[C@@](O)(CO)[C@H](C)C[C@@H]3C)C[C@@H]2C)CC[C@H]([C@]2(C)CC[C@]3(C[C@H](O)[C@@H](C)[C@@H]([C@@H](C)[C@@H](OC)[C@H](C)C(=O)O)O3)O2)O1 [Monensin] have Ratio of the control reporter (RES): test reporter (MUG) strictly under 1?
FALSE

Does CC[C@H](C)[C@H](N)C1=N[C@H](C(=O)N[C@@H](CC(C)C)C(=O)N[C@H](CCC(=O)O)C(=O)N[C@H](C(=O)N[C@H]2CCCCNC(=O)[C@H](CC(N)=O)NC(=O)[C@@H](CC(=O)O)NC(=O)[C@H](Cc3cnc[nH]3)NC(=O)[C@@H](Cc3ccccc3)NC(=O)[C@H]([C@@H](C)CC)NC(=O)[C@@H](CCCN)NC2=O)[C@@H](C)CC)CS1 [Bacitracin] ({Ileψ(thiazoline)Cys}-L[dE]IK[dOrn]I[dF]H[dD]N; lactam 4-C) have Ratio of the control reporter (RES): test reporter (MUG) strictly under 1?
FALSE

Does CCn1cc(C(=O)O)c(=O)c2ccc(C)nc21 [Nalidixic Acid] have Ratio of the control reporter (RES): test reporter (MUG) strictly under 1?
TRUE

Does CCC[C@@H]1C[C@@H](C(=O)N[C@@H]([C@H]2O[C@H](SC)[C@H](O)[C@@H](O)[C@H]2O)[C@@H](C)O)N(C)C1 [Lincomycin] have Ratio of the control reporter (RES): test reporter (MUG) strictly under 1?
FALSE

Does CC1(C)S[C@@H]2[C@H](NC(=O)Cc3ccccc3)C(=O)N2[C@H]1C(=O)O [Penicillin G] have Ratio of the control reporter (RES): test reporter (MUG) strictly under 1?
FALSE
